- assay_target: T1, SbMATE (Sorghum bicolor MATE transporter), detergent-purified (Sorghum bicolor, bDDM detergent-solubilised from Pichia pastoris; N-terminal FLAG and C-terminal His10 tags left out; covalently immobilised by EDC-NHS chemistry for SPR)
- T1 chain: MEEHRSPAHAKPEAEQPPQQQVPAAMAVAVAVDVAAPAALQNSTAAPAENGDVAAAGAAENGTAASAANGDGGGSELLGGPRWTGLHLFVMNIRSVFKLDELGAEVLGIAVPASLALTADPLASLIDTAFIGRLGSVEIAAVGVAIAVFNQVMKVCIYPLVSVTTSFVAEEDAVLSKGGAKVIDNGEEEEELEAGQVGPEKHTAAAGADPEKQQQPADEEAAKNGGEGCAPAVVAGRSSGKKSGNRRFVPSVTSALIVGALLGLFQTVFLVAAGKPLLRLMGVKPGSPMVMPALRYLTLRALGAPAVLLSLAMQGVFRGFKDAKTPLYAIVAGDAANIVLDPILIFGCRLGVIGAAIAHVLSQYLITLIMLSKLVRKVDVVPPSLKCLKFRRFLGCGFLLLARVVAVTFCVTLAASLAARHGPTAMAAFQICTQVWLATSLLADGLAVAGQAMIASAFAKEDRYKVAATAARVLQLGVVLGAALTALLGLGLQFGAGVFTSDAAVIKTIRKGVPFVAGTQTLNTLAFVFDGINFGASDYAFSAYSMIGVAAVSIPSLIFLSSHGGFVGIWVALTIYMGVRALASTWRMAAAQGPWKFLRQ
- procedure_summary: SPR; BiOptix 404Pi, CMD sensorchip; detergent-purified SbMATE covalently immobilised (EDC-NHS, 5,000 RU); purified Nbs injected at various concentrations; running buffer 50 mM HEPES pH 8.0, 150 mM NaCl, 0.03% bDDM; double-referenced against a blank surface and buffer injections; regeneration 50 mM glycine pH 2.1
- condition_context: both partners purified
endpoint_name: pKd
Please note pKd is a logarithmic value: minus log10 of concentration in mol/L. Answer with that number alone.

binder	numeric_value
Nb 83 (VHH, Selected by mRNA/cDNA display from a naive camelid single-domain library (Creative Biolabs); also called nanobody 83; source: E. coli BL21 (DE3) Star, purified (Ni-NTA, SEC)) VHH: EVQLVESGGGSVQAGGSLRLSCAVSGYTYCSYDMSWYRQAPGKEREFVSGIDSDGSTSYADSVKGRFTISQDNAKNTLYLQMNSLKPEDTAMYYCAVDSVWRLCSLDPADFGYWGQGTQVTVSS	5.48
Nb 80 (VHH, Selected by mRNA/cDNA display from a naive camelid single-domain library (Creative Biolabs); also called nanobody 80; source: E. coli, purified (Ni-NTA, SEC)) VHH: QVQLVESGGGSVQAGGSLRLSCTYSVYTYSSDSMAWFRQAPGKEREGVAGIYIGSGSTLYADSAKGRLTISQDKAKNTVYLQMNSLKPEDTALYYCAAGGNWYDGVLNVERAFAYWGQGTQVTVSS	4.91
Nb 93 (VHH, Selected by mRNA/cDNA display from a naive camelid single-domain library (Creative Biolabs); also called nanobody 93; source: E. coli, purified (Ni-NTA, SEC)) VHH: HVQLVESGGGLVQAGGFLRLSCTASGFTFDNLALAWFRQAPGKEREGVSCISWSGTRTYYADSVQGRFAISRDNAKNTLYLQMASLKPEDTAMYYCAAESSWVKTCPGDTTDWGSTYWGQGTQVTVSS	4.58

The reported pKd of the binder Nb 81 (VHH, Selected by mRNA/cDNA display from a naive camelid single-domain library (Creative Biolabs); also called nanobody 81; source: E. coli, purified (Ni-NTA, SEC)) VHH: HVQLVESGGGSVQAGGSLRLSCAASGYSYCSYDMSWYRQAPGKEREFVATIDSYGDTSYADSVKGRFTISQDNAKNTLYLQMNSLKPEDTAMYYCATTPYGGWRYFGYWGQGTQVTVSS was 4.62
